Biological target: human GPR120 (hGPR120) (Homo sapiens)
Construct: expressed in transfected cells; doxycycline-inducible expression vector
Assay: ERK assay, screening for GPR120 ligands in cell line TXGPR120
Format: cell-based
Details: GPR120 versus GPR40
REPORTED ENDPOINT: selectivity for GPR120 in ERK assay (in words)

- COMPOUND: "COc1cccc(N(CCOc2ccc(CCCC(=O)O)cc2)c2ccccc2)n1 [NCG37]"
  RESULT: "selective for GRP120"
- COMPOUND: "O=C(O)CCCc1ccc(OCCN(c2ccccc2)c2cccnc2)cc1 [NCG30]"
  RESULT: "selective for GRP120"
- COMPOUND: "O=C(O)CCCc1ccc(OCCN(c2ccccc2)c2nccs2)cc1 [NCG46]"
  RESULT: "selective for GRP120"
- COMPOUND: "CN(C)c1ccc(N(CCOc2ccc(CCCC(=O)O)cc2)c2ccccn2)cc1 [NCG54]"
  RESULT: "selective for GRP120"

====

Molecular target: human GPR120 (hGPR120) (Homo sapiens, UniProt Q5NUL3)
Construct: expressed in transfected cells; doxycycline-inducible expression vector
Sequence (Q5NUL3 whole entry): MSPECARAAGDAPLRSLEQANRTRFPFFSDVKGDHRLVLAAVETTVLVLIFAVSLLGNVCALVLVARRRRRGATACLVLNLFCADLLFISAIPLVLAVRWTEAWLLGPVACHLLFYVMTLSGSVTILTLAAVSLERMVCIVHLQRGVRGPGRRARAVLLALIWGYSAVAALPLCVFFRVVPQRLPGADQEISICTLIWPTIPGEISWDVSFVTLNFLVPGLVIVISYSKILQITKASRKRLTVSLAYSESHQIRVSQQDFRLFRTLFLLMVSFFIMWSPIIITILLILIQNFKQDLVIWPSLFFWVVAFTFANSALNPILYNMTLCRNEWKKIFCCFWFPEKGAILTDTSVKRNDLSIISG
Assay: Determination of intracellular Ca2+ concentration (FLIPR), cell line TXGPR120
Type: cell-based
Conditions: TXGPR120 cells, maximum fluorescence intensity vs ligand concentration; read-out: [Ca^2+]/GPR120 pEC50 (converted)
REPORTED ENDPOINT: EC50 (µM)

Use the examples below as a reference point.
- COMPOUND: "O=C(O)CCCc1ccc(OCCN(c2ccccc2)c2cccnc2)cc1 [NCG30]"
  EC50 / µM: 15.5
- COMPOUND: "CN(C)c1ccc(N(CCOc2ccc(CCCC(=O)O)cc2)c2ccccn2)cc1 [NCG54]"
  EC50 / µM: 15.8
- COMPOUND: "O=C(O)CCCc1ccc(OCCN(c2ccccc2)c2ncccn2)cc1 [NCG44]"
  EC50 / µM: 22.9

P. COc1cccc(N(CCOc2ccc(CCCC(=O)O)cc2)c2ccccc2)n1 [NCG37]
Q. O=C(O)CCCc1ccc(OCCN(c2ccccc2)c2nccs2)cc1 [NCG46]
R. O=C(O)CCCc1ccc(OCCN(c2ccccc2)c2ccccn2)cc1 [NCG21]
Req: Ranking field: EC50; order: falling. Please respond by ranking the labels in the order requested.
Resp: P, Q, R

====

Target: human GPR40 (hGPR40) (Homo sapiens)
Construct: expressed in transfected cells; doxycycline-inducible expression vector
Sequence (O14842 whole entry): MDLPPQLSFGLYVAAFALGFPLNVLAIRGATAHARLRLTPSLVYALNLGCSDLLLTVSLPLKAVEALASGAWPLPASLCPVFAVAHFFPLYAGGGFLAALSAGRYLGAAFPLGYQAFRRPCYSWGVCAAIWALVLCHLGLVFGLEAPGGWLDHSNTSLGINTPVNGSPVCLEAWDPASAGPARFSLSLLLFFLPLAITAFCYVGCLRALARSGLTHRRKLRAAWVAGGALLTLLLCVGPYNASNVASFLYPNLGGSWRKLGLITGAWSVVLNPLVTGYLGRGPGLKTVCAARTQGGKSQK
Assay: Determination of intracellular Ca2+ concentration (FLIPR), cell line TXGPR40
Format: cell-based
Details: relative fluorescence intensity vs LA at 10 μM, TXGPR40 cells
REPORTED ENDPOINT: [Ca^2+]/GPR40 10 μM (ratio vs. LA)

- SMI: "CN(C)c1ccc(N(CCOc2ccc(CCCC(=O)O)cc2)c2ccccn2)cc1"
  REPORTED ENDPOINT: "[Ca^2+]/GPR40 10 μM (ratio vs. LA)"
  RESULT: 0.07
- SMI: "O=C(O)CCCc1ccc(OCCN(c2ccccc2)c2ncccn2)cc1"
  REPORTED ENDPOINT: "[Ca^2+]/GPR40 10 μM (ratio vs. LA)"
  RESULT: 0.01
- SMI: "O=C(O)CCc1ccc(NCc2cccc3ncccc23)cc1"
  REPORTED ENDPOINT: "[Ca^2+]/GPR40 10 μM (ratio vs. LA)"
  RESULT: 1.17
- SMI: "CS(=O)(=O)NC(=O)CCc1ccc(NCc2cccc(Oc3ccccc3)c2)cc1"
  REPORTED ENDPOINT: "[Ca^2+]/GPR40 10 μM (ratio vs. LA)"
  RESULT: 1.29
- SMI: "CCCCN(CCOc1ccc(CCC(=O)O)cc1)c1ccccn1"
  REPORTED ENDPOINT: "[Ca^2+]/GPR40 10 μM (ratio vs. LA)"
  RESULT: 2.15

P. O=C(O)CCc1ccc(OCCCN(c2ccccc2)c2ccccn2)cc1
Q. Cc1cccc(N(CCOc2ccc(CCCC(=O)O)cc2)c2ccccc2)n1
R. O=C(O)CCCc1ccc(OCCN(c2cccnc2)c2ccccn2)cc1
Req: Arrange the 3 compounds from largest to smallest [Ca^2+]/GPR40 10 μM (ratio vs. LA). Labels, requested order.
Resp: P, Q, R

a. O=C(O)CCCc1ccc(OCCN(c2ccccc2)c2nc3ccccc3s2)cc1
b. CCCCCN(CCOc1ccc(CCC(=O)O)cc1)c1ccccn1
c. O=C(O)CCCc1ccc(OCCN(c2ccccc2)c2cc(Cl)ccn2)cc1
Req: Please list the entries, largest [Ca^2+]/GPR40 10 μM (ratio vs. LA) first. Sort the labels as requested; that list is your answer.
Resp: b, c, a

A. Cc1ccnc(N(CCOc2ccc(CCCC(=O)O)cc2)c2ccccc2)c1
B. COc1cccc(N(CCOc2ccc(CCCC(=O)O)cc2)c2ccccc2)n1
C. c1ccc(Oc2cccc(CNc3ccc(CCc4nnn[nH]4)cc3)c2)cc1
Req: Please list these compounds in decreasing order of [Ca^2+]/GPR40 10 μM (ratio vs. LA). Labels, requested order.
Resp: C, A, B

I. O=C(O)CCc1ccc(OCCN(c2ccccc2)c2ccccn2)cc1
II. O=C(O)CCCc1ccc(OCCN(c2ccccc2)c2ccccc2)cc1
III. O=C(O)CCCc1ccc(OCCN(c2ccccc2)c2cccnc2)cc1
IV. CCN(CCOc1ccc(CCC(=O)O)cc1)c1ccccn1
Req: // smallest [Ca^2+]/GPR40 10 μM (ratio vs. LA) at index 0, largest at the end Answer by naming the labels in the order asked.
Resp: III, II, I, IV
(III: 0.01, II: 0.21, I: 0.98, IV: 1.47)

a. CCCN(CCOc1ccc(CCC(=O)O)cc1)c1ccccn1
b. O=C(O)CCCc1ccc(OCCN(c2ccccc2)c2nccs2)cc1
Req: Response body: label of entry with the larger [Ca^2+]/GPR40 10 μM (ratio vs. LA); valid values a , b . Your answer should be the label of the entry you select.
Resp: a
